Provide the reported Selectivity UK, absorbance (O.D.) at 645 nm of each item.
- study_target: Urokinase (UK) (Homo sapiens, UniProt P00749)
- Assay type: biochemical
- condition_summary: TABLE 4, CHA substrates; So = 0.54; pH 8.2; 37° C., 10 minutes; 1000 IU/ml
Numbers only, in O.D..

Below, 7 compounds whose answers are already recorded.
compound: NCCCC[C@H](NC(=O)[C@H](Cc1ccccc1)NC(=O)[C@H](N)CCCCNC(=O)c1ccc2ccccc2c1)C(=O)Nc1ccc(O)c(C(=O)O)c1 [NPC-9, HD-Lys(NaC)PheLysCHA.2HCl]
meas_value: 0
//
compound: CC(C)[C@@H](N)C(=O)N[C@@H](Cc1ccccc1)C(=O)N[C@@H](CCCCN)C(=O)Nc1ccc(O)c(C(=O)O)c1 [NPC-2, HD-ValPheLysCHA.2HCl]
meas_value: 0.002
//
compound: NCCCC[C@H](NC(=O)[C@H](Cc1ccccc1)NC(=O)[C@H](N)CCC(=O)NCCc1ccccc1)C(=O)Nc1ccc(O)c(C(=O)O)c1 [NPC-23]
meas_value: 0.004
//
compound: Cc1cc(C)c(S(=O)(=O)NCCCC[C@@H](N)C(=O)N[C@@H](Cc2ccccc2)C(=O)N[C@@H](CCCCN)C(=O)Nc2ccc(O)c(C(=O)O)c2)c(C)c1 [NPC-10, HD-Lys(Mst)PheLysCHA.2HCl]
meas_value: 0.001
//
compound: Cc1ccc(CCNC(=O)CC[C@@H](N)C(=O)N[C@@H](Cc2ccccc2)C(=O)N[C@@H](CCCCN)C(=O)Nc2ccc(O)c(C(=O)O)c2)cc1 [NPC-24]
meas_value: 0.004
//
compound: Cc1ccc(S(=O)(=O)NCCCC[C@H](N)C(=O)N[C@@H](Cc2ccccc2)C(=O)N[C@@H](CCCCN)C(=O)Nc2ccc(O)c(C(=O)O)c2)cc1 [NPC-5, HL-Lys(Tos)PheLysCHA.2HCl]
meas_value: 0
//
compound: CCCC(=O)NCCCC[C@@H](N)C(=O)N[C@@H](Cc1ccccc1)C(=O)N[C@@H](CCCCN)C(=O)Nc1ccc(O)c(C(=O)O)c1 [NPC-19]
meas_value: 0.001

q: State measured Selectivity UK, absorbance (O.D.) at 645 nm of the compound NCCCC[C@H](NC(=O)[C@H](Cc1ccccc1)NC(=O)[C@H](N)CCCCNS(=O)(=O)c1ccc2ccccc2c1)C(=O)Nc1ccc(O)c(C(=O)O)c1 [NPC-8, HD-Lys(NaS)PheLysCHA.2HCl] with Urokinase (UK) (Homo sapiens, UniProt P00749).
a: 0.002

----------
- study_target: Plasmin (PL) (Sus scrofa)
- Sequence (P06867 97-809): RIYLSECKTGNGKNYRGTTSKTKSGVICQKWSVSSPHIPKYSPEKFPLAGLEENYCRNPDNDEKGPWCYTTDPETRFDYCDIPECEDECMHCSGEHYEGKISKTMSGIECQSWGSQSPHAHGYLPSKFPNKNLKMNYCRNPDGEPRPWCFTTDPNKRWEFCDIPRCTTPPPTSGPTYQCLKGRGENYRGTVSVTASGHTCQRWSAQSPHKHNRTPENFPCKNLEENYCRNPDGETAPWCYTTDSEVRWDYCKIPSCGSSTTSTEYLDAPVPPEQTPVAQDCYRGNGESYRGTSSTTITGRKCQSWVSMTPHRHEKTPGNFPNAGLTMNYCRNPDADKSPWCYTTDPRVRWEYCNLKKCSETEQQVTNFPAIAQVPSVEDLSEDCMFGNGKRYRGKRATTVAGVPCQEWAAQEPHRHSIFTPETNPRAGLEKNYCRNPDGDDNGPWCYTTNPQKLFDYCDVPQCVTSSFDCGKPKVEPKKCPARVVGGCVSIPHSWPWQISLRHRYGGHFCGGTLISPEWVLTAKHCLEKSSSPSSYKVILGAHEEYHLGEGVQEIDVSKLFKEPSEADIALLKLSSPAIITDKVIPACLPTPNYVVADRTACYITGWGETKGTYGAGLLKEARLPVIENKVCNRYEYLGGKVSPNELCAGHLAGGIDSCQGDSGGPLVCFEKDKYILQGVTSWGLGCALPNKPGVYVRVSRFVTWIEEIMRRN
- Assay type: biochemical, Pig
- condition_summary: TABLE 3, PNA substrates; So = 0.54 mmole/l; pH 7.4; 37° C., 10 minutes; 0.32 CU/ml
Where a SMILES comes first, the peptide text is derived from it.
readout_kind: Selectivity PL, absorbance (O.D.) at 405 nm
Numbers only, in O.D..

Observe how each entry below is paired with its result.
compound: NCCCC[C@H](NC(=O)[C@H](Cc1ccccc1)NC(=O)[C@H](N)CCCCNS(=O)(=O)c1ccc2ccccc2c1)C(=O)Nc1ccc([N+](=O)[O-])cc1 [NPN-11]
meas_value: 0.171
--
compound: NCCCC[C@H](NC(=O)[C@H](Cc1ccccc1)NC(=O)[C@H](N)CCC(=O)OC1CCCCC1)C(=O)Nc1ccc([N+](=O)[O-])cc1 [NPN-3, HD-Glu(CHN)PheLysPNA.2HBr] (HELM PEPTIDE1{[dE].F.K.[O=[N+]([O-])c1ccc(N[*:1])cc1]}|CHEM1{[C1CCC(O[*:1])CC1]}$PEPTIDE1,CHEM1,1:R3-1:R1$$$V2.0)
meas_value: 0.466
--
compound: Cc1ccc(CCOC(=O)CC[C@@H](N)C(=O)N[C@@H](Cc2ccccc2)C(=O)N[C@@H](CCCCN)C(=O)Nc2ccc([N+](=O)[O-])cc2)cc1 [NPN-9]
meas_value: 0.299
--
compound: NCCCC[C@H](NC(=O)[C@H](Cc1ccccc1)NC(=O)[C@H](N)CCC(=O)NCCCc1ccccc1)C(=O)Nc1ccc([N+](=O)[O-])cc1 [NPN-5]
meas_value: 0.525

Then this compound:
q: Enter measured Selectivity PL, absorbance (O.D.) at 405 nm, system Plasmin (PL) (Sus scrofa), for the compound shown: NCCCC[C@H](NC(=O)[C@H](Cc1ccccc1)NC(=O)[C@H](N)CCC(=O)NCCCCc1ccccc1)C(=O)Nc1ccc([N+](=O)[O-])cc1 [NPN-6]
a: 0.646

Source listed as patent US4605614A.
